Data provenance: PubChem BioAssay (NCI)

- Assay overview: NCI Yeast Anticancer Drug Screen. Data for the mec2-1 strain (AID 157)
- Particulars: S. cerevisiae mec2-1 strain, at 50.0 µM, active compounds read high
This is part of a sample that, as a whole, favours compounds with a hit. Of some 79,000 tested, about 15% had one in any assay.
Test readout: growth inhibition (%)

- C1CCCN(/N=N/N2CCCCCC2)CC1: 0.4
- CCC(CCC(C)C1CCC2C3CC=C4CC(OC(=O)Nc5ccccc5)CCC4(C)C3CCC12C)C(C)C (configuration not stated): -28.1
- COc1cc2cnc(-c3ccncc3)c(N)c2cc1OC: 8.4
- COc1ccc(OC)c(COC(=O)c2ccccc2)c1COC(=O)c1ccccc1: 3.9
- CCCCn1[nH]c(=O)ccc1=O: 7.6
- OC(CNc1ncccn1)(c1ccccc1)c1ccccc1: -24.8
- CCN(CC)CCN(C(=S)Nc1ccccc1)c1ccccc1: 28.1
- O=C(O)CCN1CCCS(=O)(=O)C1=O: 8
- CCCP1(=O)C=C(C)C(=C(Cl)Cl)C(C)=C1 (configuration not stated): -19.2
- CCOC(=O)CCN1C(=O)C(=O)N(c2ccc(OC)cc2)C1=S: -6.6
- OCC1CCCC(n2cnc3c(=S)nc[nH]c32)O1 (configuration not stated): -21.8
- C=C1C(=O)OC2/C=C(\C)C(O)C/C=C(/C)C(OC(=O)/C(C)=C\C)C(O)C12 (configuration not stated): -17.8

====

- Assay overview: NCI Yeast Anticancer Drug Screen. Data for the sgs1 mgt1 strain (AID 161);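 note: 0% = growth of cultures given vehicle only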
- Particulars: S. cerevisiae sgs1 mgt1 strain, at 50.0 µM, active compounds read high
The panel holds about 79,000 compounds, 15% with a hit somewhere; the sample as a whole holds those more often.
Listing of entries alongside the reported growth inhibition.
Test readout: growth inhibition (%)

* CC(=O)NOCC1NC(=O)C(CONC(C)=O)NC1=O (stereo not drawn) | -47.1
* CCOc1ccccc1NC(=O)C(=O)Cc1nc2ccccc2s1 | -2
* CSc1ccc2c(=O)c(C(=O)O)c[nH]c2c1 | 5.25
* O=[N+]([O-])c1ccc(-c2csc(NCC3CCCO3)n2)cc1 (stereo not drawn) | 49.9
* S=c1nn[nH]n1-c1cccc2ccccc12 | -4.65
* CCCCCN(CCCCC)CC(O)c1cccc2c1cc(Br)c1ccccc12 (stereo not drawn) | 8.7
* O=C1OC(=O)C2=C1C1C=CC2CC1 | 3
* CCC/C=C1\CCC(CN(C)C)C1=O (stereo not drawn) | 18.6
* CCOC(=O)c1c2cccccc-2nc1Nc1cccc2c(C)ccnc12 | -2.8
* N#C/C(c1ccccc1)=[N+](/[O-])O | 2.5
* Cn1nc(-c2ccccc2)c(C(=O)/C=C/c2ccccc2)c(N2CCCC2)c1=O | 3.2
* Cc1nn(C(=O)CC(=O)Nc2ccccc2Cl)c(C)c1N=Nc1ccccc1F | -27.6
* COc1ccc2c(C(=O)O)cc3c4ccccc4ncc3c2c1 | -6.75
* O=C(O)c1ccc2c(Cl)ccc3c2c1CC3 | 9.05
* O=C(NCC(F)(F)C(F)(F)C(F)(F)C(F)(F)C(F)(F)C(F)(F)C(F)(F)F)Oc1ccccc1 | 26.7
* CCc1cccc(CC)c1N1C(=O)C2C(C1=O)C1(Cl)C(Cl)=C(Cl)C2(Cl)C1(Cl)Cl (stereo not drawn) | 65.4
* c1ccc(-c2cc(-c3ccccc3)n(-c3ccccc3)c2-c2ccccc2)cc1 | 0.45
* C=C1[C@H](OCC(C)C)[C@@H](OC(=O)C(C)CC)[C@@H](O)C(C)(C)/C=C/[C@H](C)C(=O)[C@@]2(O)C[C@H](C)[C@H](O)[C@@H]2[C@H]1OC(=O)C(C)CC (stereo partly drawn) | 75.2
* CCOC(=O)c1cc2c(cn1)[nH]c1cccc(N)c12 | 7.05
* Clc1ccc2c(N3CCC(CCC4CCN(c5ncnc6cc(Cl)ccc56)CC4)CC3)ncnc2c1 | -7.4
* CCOC(OCC)N(C)C | -3.05
* O=C(O)c1ccc(Cl)cc1[N+](=O)[O-] | 21.6
* O=C(CCc1cccs1)OC1CCCCC1 | 4.4
